Values from paper PMC11096129

Biological target: T1, RAD52(∆RID) (Homo sapiens, UniProt P43351 1-418, del239-290)
T1 sequence: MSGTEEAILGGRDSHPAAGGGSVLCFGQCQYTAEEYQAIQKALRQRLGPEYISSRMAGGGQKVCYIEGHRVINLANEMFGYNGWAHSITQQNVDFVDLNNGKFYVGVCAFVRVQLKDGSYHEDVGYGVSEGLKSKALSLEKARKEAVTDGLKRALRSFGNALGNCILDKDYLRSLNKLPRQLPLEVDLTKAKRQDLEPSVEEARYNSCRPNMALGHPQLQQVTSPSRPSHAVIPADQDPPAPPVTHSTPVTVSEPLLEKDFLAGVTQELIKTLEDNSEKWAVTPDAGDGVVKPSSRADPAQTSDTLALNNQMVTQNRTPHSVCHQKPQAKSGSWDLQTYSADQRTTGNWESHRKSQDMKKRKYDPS
Test: fluorescence anisotropy; 1 mM Mg(OAc)2; FA: 25 mM HEPES pH 8.0, 0.2 M KOAc, 10% glycerol, 0.25 mM TCEP, 1 mM Mg(OAc)2, 0.01% Brij-35, 25 °C, 10 nM DNA; BLI: 25 mM HEPES pH 8.0, 200 mM KOAc, 0.01% Tween-20, 1 mM Mg(OAc)2, 0.25 mM TCEP, 25 °C
Conditions: protein: recombinant; tags: none (tags removed); label: 5' 6-FAM; single strand
Property label: pKd
One number for each entry, as −log10 of the molar value.

Ask: For TATCGAATCCGTCTAGTCAACGCTGCCGAATTCTACCAGT (ssDNA) [FAM-SSA4 (40 nt)] , write its pKd.
Result: 9.15
